- System: Es-2
- test.protocol: Primary qHTS to identify gynecologic anti-cancer compounds using libraries of approved drugs and bioactive compounds (AID 1345084); further: nearly all actives have a fitted effect of over 55% in size
- condition: Gynecologic cancer cell panel viability, ATPlite luminescence, 48 h; series mostly up to 57.5 µM
Inconclusive results are not listed. Activity calls are given as the source filed them. The call rests on the fitted dose curve; in most records, active means well fitted cell-killing curve with a large enough effect; inconclusive means small, poorly fitted or top-dose-only effect, or effect the other way; inactive means flat fitted curve, though single readings scatter.
The reply should be one of these categories: label 1 for active, label 0 for inactive

Hi team, can someone confirm the assay call for C=C(C(=O)O)C1CCC2(C)CCC(O)C(C)(O)C2C1 (stereo unspecified) ?
label 0

// repeat for CC(C)C[C@H](CC(=O)NO)C(=O)N[C@@H](Cc1ccc2ccccc2c1)C(=O)N[C@@H](C)C(=O)NCCN and report
label 0

// repeat for COc1cc(C(=O)NC2CCN(C)CC2)c(F)cc1Nc1ncc2c(n1)N(C1CCCC1)CC(F)(F)C(=O)N2C and report
label 1

// repeat for CC(C)=CC/C=C(\C)[C@H]1CC[C@]2(C)[C@@H]1[C@H](O)C[C@@H]1[C@@]3(C)CC[C@H](O)C(C)(C)[C@@H]3[C@@H](O[C@@H]3O[C@H](CO)[C@@H](O)[C@H](O)[C@H]3O)C[C@]12C and report
label 0

----------
- Tested on: CASKI
- test.protocol: Primary qHTS to identify gynecologic anti-cancer compounds using libraries of approved drugs and bioactive compounds (AID 1345084); further: nearly all actives have a fitted effect of over 55% in size; on activity change, negative = cytotoxicity: on the % scale 0 is the no-effect control and ±100 the full control effect
- condition: Gynecologic cancer cell panel viability, ATPlite luminescence, 48 h; series mostly up to 57.5 µM
- Text: National Center for Advancing Translational Sciences [NCATS] Assay Overview: Chemotherapeutic drug responses vary from cancer to cancer and from patient to patient. […] ATPlite is a luminescence based assay reliant on the conversion of a luciferase substrate to light in the presence of ATP. As a cytotoxic compound will suppress growth and decrease the number of cells, the concentration of ATP will decrease, and less light signal will be detected in the well. […]
Inconclusive results are not listed. The source made the active and inactive calls. Calls follow the shape of the dose curve; as a rule, active = well fitted cell-killing curve with a large enough effect; inconclusive = small, poorly fitted or top-dose-only effect, or effect the other way; inactive = flat fitted curve, though single readings scatter. *1 amine or outer side, *2 acyl side, *3 side chain or, on linkers, in order; H or OH if unused. Where a SMILES comes first, the peptide text is derived from it. [ ]: non-standard residue; d: D form. X4 = CC(C)=CCc1cc(C(O)C(N[*:1])C(=O)[*:2])ccc1O
Listed below: activity change, negative = cytotoxicity values for each entry.

[[record]]
compound = "CC1(C)CC[C@]2(C(=O)O[C@@H]3O[C@H](CO)[C@@H](O)[C@H](O)[C@H]3O)CC[C@]3(C)C(=CCC4[C@@]5(C)CC[C@H](O[C@@H]6O[C@H](C(=O)O)[C@@H](O)[C@H](O)[C@H]6O)[C@@](C)(CO)C5CC[C@]43C)C2C1 (stereo partly specified)"
parameter_measured = "activity change, negative = cytotoxicity"
measured_value = "1.03% [at 11.6 µM] (inactive)"

[[record]]
compound = "CC(C)=CCc1cc(C(O)C2NC(=O)CNC(=O)C(Cc3c[nH]c4ccccc34)NC(=O)C3CCCN3C(=O)CNC(=O)C(C(C)C)NC(=O)CNC2=O)ccc1O (stereo unspecified) (cyclo(G[X4]GVGPW); configuration not given here)"
parameter_measured = "activity change, negative = cytotoxicity"
measured_value = "-0.505% [at 11.6 µM] (inactive)"

[[record]]
compound = "CC(=O)O[C@@H]1[C@H](O[C@@H]2O[C@@H](CO)[C@H](O)[C@H]2O)[C@@H](O[C@@H]2O[C@@H](C)[C@H](O[C@@H]3OC[C@@H](O)[C@H](O)[C@H]3O)[C@@H](O)[C@H]2O)[C@H](OC(=O)[C@]23CCC(C)(C)C[C@H]2C2=CCC4[C@@]5(C)CC[C@H](O[C@@H]6O[C@H](C(=O)O)[C@@H](O)[C@H](O)[C@H]6O[C@@H]6O[C@H](CO)[C@H](O)[C@H](O)[C@H]6O)[C@@](C)(C=O)C5CC[C@@]4(C)[C@]2(C)CC3)O[C@@H]1C (stereo partly specified)"
parameter_measured = "activity change, negative = cytotoxicity"
measured_value = "4.57% [at 6.55 µM] (inactive)"

[[record]]
compound = "CC1(C)CC[C@]2(C(=O)O[C@@H]3O[C@H](CO[C@@H]4O[C@H](CO)[C@@H](O)[C@H](O)[C@H]4O[C@@H]4O[C@H](CO)[C@@H](O)[C@H](O)[C@H]4O)[C@@H](O)[C@H](O[C@@H]4O[C@H](CO)[C@@H](O)[C@H](O)[C@H]4O)[C@H]3O)CC[C@]3(C)C(=CCC4[C@@]5(C)CC[C@@H](O)[C@@](C)(C(=O)O[C@@H]6O[C@H](CO)[C@@H](O)[C@H](O)[C@H]6O)C5CC[C@]43C)[C@@H]2C1 (stereo partly specified)"
parameter_measured = "activity change, negative = cytotoxicity"
measured_value = "-2.18% [at 6.55 µM] (inactive)"

[[record]]
compound = "CC(CCC1(O)OC2CC3C4CCC5CC(O[C@@H]6O[C@H](CO)[C@@H](O)[C@H](O)[C@H]6O[C@@H]6O[C@@H](C)[C@H](O)[C@@H](O)[C@H]6O)C(O)CC5(C)C4CCC3(C)C2C1C)CO[C@@H]1O[C@H](CO)[C@@H](O)[C@H](O)[C@H]1O (stereo partly specified)"
parameter_measured = "activity change, negative = cytotoxicity"
measured_value = "-0.222% [at 11.6 µM] (inactive)"


Below: the item to evaluate.
Dear colleague, I am looking for the recorded activity change, negative = cytotoxicity of the following compound: C=CC(C)(O)CC/C=C(\C)C(=O)OC1C(O)C(CO)OC(OC(=O)C23CCC(C)(C)CC2C2=CCC4C5(C)CCC(OC6OC(COC7OCC(OC(C)=O)C(O)C7OC7OC(COC(C)=O)C(O)C(O)C7O)C(O)C(O)C6O)C(C)(C)C5CCC4(C)C2(C)C(O)C3O)C1OC1OCC(OC2OCC(O)C(OC3OCC(O)C(O)C3O)C2O)C(O)C1O (stereo unspecified)
-3.55% [at 6.55 µM] (inactive)
